# study system: FZD5; also: reference of the scale not given here
# assay info: pooled miR-30 sensor sort-seq; sequence = guide strand
# settings: shRNA
property: sensor-assay potency score (higher = more potent)
Numbers only.

// for each sequence below, give its sensor-assay potency score (higher = more potent)
1. TTGATGACGCTGCGGATGCGGA
2. TACTTGAGCATGAGCACCCAGT
3. TCCATGTCGATGAGGAAGGTGG
4. TTCTCCAGCTTGTCCGTCTTGG

**A:**
-1.12
-0.921
-1.25
-0.54

Below are 2 sequences. Give each one its sensor-assay potency score (higher = more potent).
1. TAGGAAGAAGCGCAGGTCCGGC
2. TAGAGCAGCGTGAAGATGCCGA

**A:**
1. -0.902
2. 0.0125

Batch request: sensor-assay potency score (higher = more potent) per item, same order as input.
1. TAGCAGGCCACCACAATGCTGG
2. TCCAGCTTGTCCGTCTTGGTGC

**A:**
-0.787
-1.11
